# Tested on: His-BIR3 (241-356, XIAP) (Homo sapiens)
# Construct: additions of His-BIR3 (241-356, XIAP), fluorescein labeled SMAC peptide
# Sequence (P98170 241-356): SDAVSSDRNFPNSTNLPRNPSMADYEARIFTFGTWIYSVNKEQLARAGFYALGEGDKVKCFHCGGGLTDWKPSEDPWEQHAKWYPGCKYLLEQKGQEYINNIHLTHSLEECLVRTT
# Measurement protocol: XIAP-BIR3/SMAC Homogeneous Time Resolved Fluorescence (HTRF) Assay
# Measurement setup: fluorescein labeled SMAC peptide
pIC50: −log10 of the molar value.
Label scheme for pIC50: lower than 8 is FALSE, 8 and above is TRUE.

Here's what some known entries look like.
Molecule smiles	Label
CN[C@@H](C)C(=O)N[C@H](C(=O)N1C[C@@H]2C[C@H]1C(=O)N[C@@H](Cc1ccc3ccccc3c1)C(=O)N[C@H](C(=O)O)Cc1ccc(cc1)OC/C=C/CO[C@H]1C[C@@H](C(=O)N[C@@H](Cc3ccc4ccccc4c3)C(=O)N[C@H](C(=O)O)Cc3ccc(cc3)C(=O)N2)N(C(=O)[C@@H](NC(=O)[C@H](C)N(C)C(C)=O)C(C)(C)C)C1)C(C)(C)C	FALSE
CN[C@@H](C)C(=O)N[C@H](C(=O)N1C[C@@H]2C[C@H]1C(=O)N[C@@H](Cc1ccc3ccccc3c1)C(=O)N[C@H](C(=O)O)Cc1ccc(cc1)OC/C=C/CO[C@H]1C[C@@H](C(=O)N[C@@H](Cc3ccc(-c4cccc(F)c4)cc3)C(=O)N[C@H](C(=O)NS(=O)(=O)C3CC3)Cc3ccc(cc3)OCc3cn2nn3)N(C(=O)[C@@H](NC(=O)[C@H](C)NC)C(C)(C)C)C1)C(C)(C)C	FALSE
CN[C@@H](C)C(=O)N[C@H](C(=O)N[C@H]1C/C=C/CC[C@@H](C(=O)O)NC(=O)[C@H](Cc2ccccc2)NC(=O)[C@@H]2CN(CCNC(=O)CC[C@@H](C(=O)O)NC(=O)[C@H](Cc3ccccc3)NC1=O)CCN2C(=O)[C@@H](NC(=O)[C@H](C)NC)C(C)C)C(C)C	FALSE
CN[C@@H](C)C(=O)N[C@H](C(=O)N1C[C@@H]2C[C@H]1C(=O)N[C@@H](Cc1ccc3ccccc3c1)C(=O)N[C@H](C(=O)O)Cc1ccc(cc1)OC/C=C/CO[C@H]1C[C@@H](C(=O)N[C@@H](Cc3ccc(-c4ccccc4)cc3)C(=O)N[C@H](C(=O)O)Cc3ccc(cc3)C(=O)N2)N(C(=O)[C@@H](NC(=O)[C@H](C)NC)C(C)(C)C)C1)C(C)(C)C	FALSE

Now, please, on to the next compound.
Q: hey, is pIC50 for this one >= 8? `CN[C@@H](C)C(=O)N[C@H](C(=O)N1C[C@H]2C/C=C/COc3ccc(cc3)C[C@@H](C(=O)O)NC(=O)[C@H]([C@H](C)c3ccc4ccccc4c3)NC(=O)[C@@H]3C[C@@H](CN3C(=O)[C@@H](NC(=O)[C@H](C)NC)C(C)(C)C)n3cc(nn3)COc3ccc(cc3)C[C@@H](C(=O)NS(=O)(=O)C3CC3)NC(=O)[C@H](Cc3ccc4ccccc4c3)NC(=O)[C@@H]1C2)C(C)(C)C`
Result: TRUE
